read-out: Cellular tumor antigen p53 (Homo sapiens); experiment: LTEA_HepaRG_TP53: Life Technologies and Expression Analysis (LTEA) Assay for Tumor Protein P53 (TP53) using HepaRG (AID 2283537); conditions: mRNA level, 48 h; actives raise or lower the signal
Activity calls are given as the source filed them. Rule for the calls: active = hit-call score of the fitted dose curve at least 0.9, where 1 is the maximum; inactive = score below 0.9.
Output constraint: value belongs to active, inactive

Previously resolved entries follow.
CC(O)CC(C)(C)O (centres undefined) ... inactive
CC(=O)N1CCN(c2ccc(OC[C@H]3CO[C@](Cn4ccnc4)(c4ccc(Cl)cc4Cl)O3)cc2)CC1 ... active

IN: Write down the call the test reported for this compound. Item: CCCCCCCCCCCCO
OUT: inactive

IN: Write down the call the test reported for this compound. Item: COc1cc(C(=O)NC2CCN(C)CC2)ccc1Nc1ncc2c(n1)N(C1CCCC1)CC(F)(F)C(=O)N2C
OUT: active

====

assay: BSK_SAg_PBMCCytotoxicity: PBMC Cytotoxicity Assessment in the BioMAP Diversity Plus: SAg Assay (AID 2283093); conditions: primary human HUVEC with PBMC;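 note: PBMC viability measured as Alamar Blue reduction fluorescence at 546/580 nm; fitted both ways against DMSO so a hit may be loss or gain of signal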
Calls of active or inactive are those of the source. How the source made its calls: active means hit-call score of the fitted dose curve at least 0.9, where 1 is the maximum; inactive means score below 0.9.
Output constraint: value belongs to active, inactive

Previously resolved entries follow.
O=C(Nc1ccc(Cl)cc1)Nc1ccc(Cl)c(Cl)c1 ... active
O=C(O)Cn1c(=O)n(Cc2ccc(Br)cc2F)c(=O)c2ccc(Cl)cc21 ... inactive
Cc1cc2c(cc1C(F)(F)F)N(C(=O)Nc1ccc(Oc3cccnc3C)nc1)CC2 ... inactive
Cc1cc(F)ccc1-c1cc(N2CC[C@@H](O)[C@H]2CO)ncc1N(C)C(=O)C(C)(C)c1cc(C(F)(F)F)cc(C(F)(F)F)c1 ... active
CCCCCCCCCCCC[N+](C)(C)C ... active

IN: Write down the call the test reported for this molecule. Item: CC(=O)N1CCN(c2ccc(OC[C@H]3CO[C@](Cn4ccnc4)(c4ccc(Cl)cc4Cl)O3)cc2)CC1
OUT: active

IN: Write down the call the test reported for this molecule. Item: Cc1ccc2oc(CN(Cc3ccccc3)C(=O)Nc3c(F)cc(F)cc3F)c(-c3ccc(Cl)cc3)c2c1
OUT: inactive

IN: Write down the call the test reported for this molecule. Item: COCC(C)OCC(C)OCC(C)O (centres undefined)
OUT: inactive

IN: Write down the call the test reported for this molecule. Item: O=C(OCCCCCCOC(=O)c1ccccc1)c1ccccc1
OUT: inactive

====

target: Estrogen receptor (Homo sapiens); experiment: OT_ER_ERaERa_0480: Odyssey Thera (OT) 8-hour HEK293T Protein-Complementation Assay for Estrogen Receptor-alpha/-alpha Homodimer (AID 2283351);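 note: rise in fluorescence from reassembled reporter fragments on ERα LBD homodimer in nucleus or whole cell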
Records with an inconclusive call do not appear. Calls of active or inactive are those of the source. How the source made its calls: active means hit-call score of the fitted dose curve at least 0.9, where 1 is the maximum; inconclusive means response in the unintended direction; inactive means score below 0.9.
Measure Name: outcome

CCO[Si](CCCNC(N)=O)(OCC)OCC ... inactive
O=C(O)Cn1c(=O)n(Cc2ccc(Br)cc2F)c(=O)c2ccc(Cl)cc21 ... inactive
CCCCCCCCN(C)CCCCCCCC ... inactive

====

read-out: sulfotransferase 2A1 (SULT2A1), SULT2A1 (gene 6822); test: LTEA_HepaRG_SULT2A1: Life Technologies and Expression Analysis (LTEA) Assay for sulfotransferase 2A1 (SULT2A1) using HepaRG (AID 2283531); conditions: mRNA level, 48 h; actives raise or lower the signal
Active and inactive are the calls of the source. How the source made its calls: active means hit-call score of the fitted dose curve at least 0.9, where 1 is the maximum; inactive means score below 0.9.
Output constraint: value belongs to active, inactive

Previously resolved entries follow.
Cc1occc1C(=O)Nc1ccc(C(=O)N2CCC(F)(F)/C(=C\C(=O)N3CCC(N4CCCCC4)CC3)c3ccccc32)cc1 ... inactive
Clc1cc(Cl)c2c(c1)N=C1CCCCCN1C2 ... inactive
CCCCCCCCCCCCO ... inactive

IN: Write down the call the test reported for this molecule. Item: CC(C)(C)c1cc(/C=C2\SC(N)=NC2=O)cc(C(C)(C)C)c1O
OUT: active

IN: Write down the call the test reported for this molecule. Item: Cc1ccc2oc(CN(Cc3ccccc3)C(=O)Nc3c(F)cc(F)cc3F)c(-c3ccc(Cl)cc3)c2c1
OUT: inactive

IN: Write down the call the test reported for this molecule. Item: CCO[Si](CCCNC(N)=O)(OCC)OCC
OUT: inactive

====

read-out: Plasminogen activator inhibitor-1 (PAI1), SERPINE1 (gene 5054); assay: BSK_hDFCGF_PAI1: BioMAP Diversity Plus: hDFCGF Assay for Plasminogen activator inhibitor-1 (PAI1) Biomarker Activity (AID 2283066); conditions: primary human foreskin fibroblasts; actives raise or lower the signal
Activity calls are given as the source filed them. How the source made its calls: active means hit-call score of the fitted dose curve at least 0.9, where 1 is the maximum; inactive means score below 0.9.
Output constraint: value belongs to True for active, False for inactive

CC(C)(C)c1cc(/C=C2\SC(N)=NC2=O)cc(C(C)(C)C)c1O ... True
O=CCCCC=O ... True
O=C(O)Cc1cc(I)c(Oc2ccc(O)c(I)c2)c(I)c1 ... True

Then this compound:
IN: Write down the call the test reported for this compound. Item: O=C(O)c1ccccc1-n1cc(C(=O)O)c(=O)c2cc(Nc3c(F)cc(F)cc3Cl)c(Cl)cc21
OUT: False

====

Read-out: Interleukin-1 alpha (IL1a), IL1A (gene 3552)
Assay: BSK_KF3CT_IL1a: BioMAP Diversity Plus: KF3CT Assay for Interleukin-1 alpha (IL1a) Biomarker Activity (AID 2283070)
Conditions: primary human keratinocytes with fibroblasts; actives raise or lower the signal
Procedure: BSK_KF3CT is a cell-based, multiplexed-readout assay that uses keratinocytes and foreskin fibroblasts, a human skin primary cell co-culture, with measurements taken at 24 hours after chemical dosing in a 96-well plate.BSK_KF3CT_IL1a is an assay component measured in the BSK_KF3CT assay. It measures IL-1a antibody related to regulation of gene expression using ELISA technology.Data from the assay component BSK_KF3CT_IL1a was analyzed into 1 assay endpoint. […]
Active and inactive are the calls of the source. The calls were made as follows: active = hit-call score of the fitted dose curve at least 0.9, where 1 is the maximum; inactive = score below 0.9.
Measure Name: outcome

Clc1cc(Cl)c2c(c1)N=C1CCCCCN1C2 ... inactive
Cc1occc1C(=O)Nc1ccc(C(=O)N2CCC(F)(F)/C(=C\C(=O)N3CCC(N4CCCCC4)CC3)c3ccccc32)cc1 ... inactive
OC12N=C(c3ccccc3)SC1Cc1cc(Cl)ccc12 (stereo not drawn) ... inactive

====

Test: CEETOX_H295R_DOC: CeeTox H295R High-throughput Steroidogenesis Assay for DOC (AID 2283439)
Details: actives raise or lower the signal
Procedure: CEETOX_H295R is a cell-based, multiplexed-readout assay that uses H295R, a human adrenal gland cell line, with measurements taken at 48 hours after chemical dosing in a 96-well plate.CEETOX_H295R_DOC is one of 23 assay component(s) measured or calculated from the CEETOX_H295R assay. […] This assay endpoint, CEETOX_H295R_DOC, was analyzed with bidirectional fitting relative to DMSO as the negative control and baseline of activity. […]
The source made the active and inactive calls. The calls were made as follows: active = hit-call score of the fitted dose curve at least 0.9, where 1 is the maximum; inactive = score below 0.9.
Output constraint: value belongs to y for active, n for inactive

Previously resolved entries follow.
CC(=O)N1CCN(c2ccc(OC[C@H]3CO[C@](Cn4ccnc4)(c4ccc(Cl)cc4Cl)O3)cc2)CC1 ... y
Clc1cc(Cl)c2c(c1)N=C1CCCCCN1C2 ... n
Oc1ccc2ccccc2c1 ... n

IN: Write down the call the test reported for this compound. Item: CC(C)(C)c1cc(/C=C2\SC(N)=NC2=O)cc(C(C)(C)C)c1O
OUT: y

IN: Write down the call the test reported for this compound. Item: O=C(Nc1ccc(Cl)cc1)Nc1ccc(Cl)c(Cl)c1
OUT: y

IN: Write down the call the test reported for this compound. Item: OC12N=C(c3ccccc3)SC1Cc1cc(Cl)ccc12 (configuration not stated)
OUT: y

IN: Write down the call the test reported for this compound. Item: NC(=O)c1nc(-c2cccc(-c3cc(F)ccc3OCC(F)(F)C(F)(F)F)c2)n[nH]1
OUT: n

====

read-out: Tumor necrosis factor receptor 1 (TNFRSF1A), TNFRSF1A (gene 7132); assay: LTEA_HepaRG_TNFRSF1A: Life Technologies and Expression Analysis (LTEA) Assay for Tumor necrosis factor receptor 1 (TNFRSF1A) using HepaRG (AID 2283535); conditions: mRNA level, 48 h; actives raise or lower the signal
The source made the active and inactive calls. Rule for the calls: active = hit-call score of the fitted dose curve at least 0.9, where 1 is the maximum; inactive = score below 0.9.
Output constraint: value belongs to 1 = active, 0 = inactive

CCCC(=O)OCCC(C)C ... 0

IN: Write down the call the test reported for this compound. Item: Cc1ccc(C(C)C)cc1
OUT: 0

IN: Write down the call the test reported for this compound. Item: O=C(Nc1ccc(Cl)cc1)Nc1ccc(Cl)c(Cl)c1
OUT: 1

IN: Write down the call the test reported for this compound. Item: CC1=CC(=O)/C(=C(/C)O)C(=O)O1
OUT: 0

IN: Write down the call the test reported for this compound. Item: c1ccc2ccccc2c1
OUT: 0

IN: Write down the call the test reported for this compound. Item: OC12N=C(c3ccccc3)SC1Cc1cc(Cl)ccc12 (configuration not stated)
OUT: 0

IN: Write down the call the test reported for this compound. Item: CCCOC(=O)c1cc(O)c(O)c(O)c1
OUT: 0

IN: Write down the call the test reported for this compound. Item: Cc1cc(F)ccc1-c1cc(N2CC[C@@H](O)[C@H]2CO)ncc1N(C)C(=O)C(C)(C)c1cc(C(F)(F)F)cc(C(F)(F)F)c1
OUT: 0

IN: Write down the call the test reported for this compound. Item: COc1cc(C(=O)NC2CCN(C)CC2)ccc1Nc1ncc2c(n1)N(C1CCCC1)CC(F)(F)C(=O)N2C
OUT: 1

IN: Write down the call the test reported for this compound. Item: CCN(CC)C(=O)c1cc(S(=O)(=O)Cc2ccccc2)c(N2CCC(c3ccccc3)CC2)cc1N(CC)CCN(C)C
OUT: 1

IN: Write down the call the test reported for this compound. Item: CCOC(=O)O[C@H](C)OC(=O)c1ccc2c(c1)cc(C(=O)NC1CCN(C(C)C)CC1)n2Cc1cc(-c2ccc(Cl)s2)on1
OUT: 0

IN: Write down the call the test reported for this compound. Item: CC(C)(O)c1ccc(CNC(=O)c2cccnc2Oc2ccc3nonc3c2)cc1
OUT: 0

IN: Write down the call the test reported for this compound. Item: O=C(O)c1ccccc1C(=O)OCc1ccccc1
OUT: 0

IN: Write down the call the test reported for this compound. Item: Cc1cc2c(cc1C(F)(F)F)N(C(=O)Nc1ccc(Oc3cccnc3C)nc1)CC2
OUT: 1

IN: Write down the call the test reported for this compound. Item: Cc1cccc2ccccc12
OUT: 0

IN: Write down the call the test reported for this compound. Item: CC(C)(C)c1cc(/C=C2\SC(N)=NC2=O)cc(C(C)(C)C)c1O
OUT: 1

IN: Write down the call the test reported for this compound. Item: CC(O)CC(C)(C)O (configuration not stated)
OUT: 0
